measured_on: PLK1 (Homo sapiens, UniProt P53350)
Sequence (P53350 whole entry): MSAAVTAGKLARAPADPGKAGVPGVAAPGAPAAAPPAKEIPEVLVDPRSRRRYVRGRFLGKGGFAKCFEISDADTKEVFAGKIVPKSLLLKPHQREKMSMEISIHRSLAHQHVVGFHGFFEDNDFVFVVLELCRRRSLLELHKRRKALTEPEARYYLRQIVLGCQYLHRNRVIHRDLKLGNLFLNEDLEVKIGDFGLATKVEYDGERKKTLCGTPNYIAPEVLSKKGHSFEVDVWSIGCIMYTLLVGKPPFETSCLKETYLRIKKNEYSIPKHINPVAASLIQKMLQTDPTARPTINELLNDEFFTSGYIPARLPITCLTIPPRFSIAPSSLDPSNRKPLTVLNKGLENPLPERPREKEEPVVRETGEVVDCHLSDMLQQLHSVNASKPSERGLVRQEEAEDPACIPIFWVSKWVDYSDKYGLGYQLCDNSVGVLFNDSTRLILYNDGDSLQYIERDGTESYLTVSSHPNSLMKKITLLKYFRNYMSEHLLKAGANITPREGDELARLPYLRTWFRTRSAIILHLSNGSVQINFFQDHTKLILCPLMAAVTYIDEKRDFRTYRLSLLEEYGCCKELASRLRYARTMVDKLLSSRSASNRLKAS
protocol_details: PLK TR-FRET peptide assay, PLK1
Assay type: biochemical
run_parameters: GST-PLK1, 60 min reaction
Would you mind telling me the reported IC50 of each entry?

Solved entries:
molecule: CC[C@@H]1C(=O)N(C)c2cnc(-c3nccs3)nc2N1C1CCCC1 [Example 330]
measured_on: PLK1 (Homo sapiens, UniProt P53350)
IC50: 1 to 10 µM

molecule: CCC12CCCCN1c1nc(-n3ccnc3-c3cc(F)cc(F)c3)ncc1N(C)C2=O (racemic) [Example 243]
measured_on: PLK1 (Homo sapiens, UniProt P53350)
IC50: 10 to 50 µM

molecule: CN1C(=O)C2(CC(F)(F)F)CCCN2c2nc(-n3ccnc3-c3ccccc3)ncc21 (stereo not shown) [Example 339]
measured_on: PLK1 (Homo sapiens, UniProt P53350)
IC50: 10 to 50 µM

molecule: CC[C@@H]1C(=O)N(C)c2cnc(-c3cncnc3-c3ccc(C(F)(F)F)cc3)nc2N1C(C)C [Example 168]
measured_on: PLK1 (Homo sapiens, UniProt P53350)
IC50: 10 to 50 µM

Give IC50 for each listed item.
1. CC[C@@H]1C(=O)N(C)c2cnc(-c3ccnc(N(C)C)c3)nc2N1C1CCCC1 [Example 21]
2. CC[C@@H]1C(=O)N(C)c2cnc(-c3ccncc3-c3ccccc3)nc2N1C1CCCC1 [Example 85]
3. CC[C@@H]1C(=O)N(C)c2cnc(-n3ccnc3-c3ccccc3)nc2N1C1CCC1 [Example 47]
4. CC[C@@H]1CC[C@@]2(CC)C(=O)N(C)c3cnc(-n4ccnc4C)nc3N12 [Example 325]

Reply:
< 1 µM
< 1 µM
< 1 µM
10 to 50 µM

Please give IC50, item by item, for the list that follows.
1. CC[C@@H]1C(=O)N(C)c2cnc(N3CCCCC3)nc2N1C1CCCC1 [Example 2]
2. CCC1C(=O)N(C)c2cnc(-c3cn[nH]c3-c3nccs3)nc2N1c1ccc(F)cc1 (stereo not shown) [Example 370]

Reply:
["10 to 50 µM", "< 1 µM"]

----------
For each record, write down the corresponding pIC50.
measured_on: PLK1 (Homo sapiens, UniProt P53350)
protocol_details: PLK TR-FRET peptide assay, PLK1
Type: biochemical
run_parameters: GST-PLK1, 60 min reaction
pIC50: −log10 of the molar value.

Here are 3 molecules together with their reported answers.
molecule: CC[C@]12CCCCN1c1nc(-n3ccnc3)ncc1N(C)C2=O [Example 287]
pIC50: < 4.30
--
molecule: CC[C@@H]1C(=O)N(C)c2cnc(-c3ccncc3NC(=O)CC(C)(C)C)nc2N1C1CCCC1 [Example 108]
pIC50: 4.30 to 5.00
--
molecule: CC[C@@H]1C(=O)N(C)c2cnc(-c3ccncc3-c3ccccc3)nc2N1C1CC1 [Example 142]
pIC50: 4.30 to 5.00

Now consider the entry below.
Ask: Using known records, supply pIC50 for CC[C@@H]1C(=O)N(C)c2cnc(-n3ccnc3-c3cccc(F)c3)nc2N1C1CCOC1 (stereo partly shown) [Example 192]
Reply: > 6.00

----------
measured_on: PLK2 (Homo sapiens, UniProt Q9NYY3)
Sequence (Q9NYY3 whole entry): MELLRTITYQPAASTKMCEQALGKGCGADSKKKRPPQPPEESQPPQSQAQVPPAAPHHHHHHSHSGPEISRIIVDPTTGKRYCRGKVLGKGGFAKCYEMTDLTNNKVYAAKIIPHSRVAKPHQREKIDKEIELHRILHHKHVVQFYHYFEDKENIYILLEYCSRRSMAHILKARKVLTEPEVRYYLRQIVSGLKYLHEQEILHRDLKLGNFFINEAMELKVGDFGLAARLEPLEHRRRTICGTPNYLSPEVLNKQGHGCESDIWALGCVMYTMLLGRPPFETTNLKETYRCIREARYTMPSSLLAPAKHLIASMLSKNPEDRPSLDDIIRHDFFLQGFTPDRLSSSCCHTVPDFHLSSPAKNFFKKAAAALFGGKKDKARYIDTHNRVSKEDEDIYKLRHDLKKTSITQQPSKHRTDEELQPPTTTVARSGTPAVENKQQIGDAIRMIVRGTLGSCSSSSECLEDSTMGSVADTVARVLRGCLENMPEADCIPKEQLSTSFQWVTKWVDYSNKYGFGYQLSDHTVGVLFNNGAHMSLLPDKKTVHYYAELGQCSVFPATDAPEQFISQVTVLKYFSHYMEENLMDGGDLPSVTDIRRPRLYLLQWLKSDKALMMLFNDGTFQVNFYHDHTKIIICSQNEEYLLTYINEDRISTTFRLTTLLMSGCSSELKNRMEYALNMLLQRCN
protocol_details: PLK TR-FRET peptide assay, PLK2
Type: biochemical
run_parameters: PLK TR-FRET peptide assay, GST-PLK2, 60 min reaction; read-out: Plk2 IC50
Give measured IC50 for each item. Keep answers brief.

compound: CC[C@@]12CCC(=O)N1c1nc(-n3ccnc3)ncc1N(C)C2=O
IC50: > 50 µM

compound: CC[C@@H]1C(=O)N(C)c2cnc(-n3ccnc3N3CCN(C)CC3)nc2N1C1CCCC1
IC50: 10 to 50 µM

compound: CCC12CCCCN1c1nc(-n3ccnc3-c3ccc(F)cc3F)ncc1N(C)C2=O (racemic)
IC50: < 1 µM

For each of the compounds below, state IC50.
1. CC[C@@H]1C(=O)N(C)c2cnc(-n3ccnc3-c3ccc(F)c(F)c3)nc2N1C1CCC(F)(F)C1 (stereo partly shown)
2. CC[C@@H]1C(=O)N(C)c2cnc(N3CCCCC3)nc2N1C1CCCC1
3. CC[C@]1(C)C(=O)N(C)c2cnc(-c3cn[nH]c3-c3nccs3)nc2N1CCC(F)(F)F
4. CC[C@@]12CCCN1c1nc(-n3ccnc3-c3cc(F)cc(F)c3)ncc1N(C)C2=O
5. CN1C(=O)[C@H]2CCCCN2c2nc(-c3ccncc3)ncc21

Reply:
1: < 1 µM; 2: 10 to 50 µM; 3: < 1 µM; 4: < 1 µM; 5: 10 to 50 µM

Would you mind listing IC50 for each of the following compounds?
1. CC[C@@H]1C(=O)N(C)c2cnc(-c3ccccn3)nc2N1C1CCCC1
2. [2H]C([2H])([2H])N1C(=O)[C@@H](C([2H])([2H])C([2H])([2H])[2H])N(C([2H])(C([2H])([2H])[2H])C([2H])([2H])[2H])c2nc(-n3ccnc3-c3cc(F)cc(F)c3)ncc21

Reply:
["1 to 10 µM", "< 1 µM"]
